- TARGET: T1, human TL1A (Fitzgerald, Prod. #30R-AT070) (human, UniProt O95150 72-251, limits assumed, biotinylated with EZ-Link Sulfo-NHS-LC-Biotin where used as soluble antigen)
- T1 construct: also called TNFSF15; biotinylated human TL1A
- T1 sequence (looked up): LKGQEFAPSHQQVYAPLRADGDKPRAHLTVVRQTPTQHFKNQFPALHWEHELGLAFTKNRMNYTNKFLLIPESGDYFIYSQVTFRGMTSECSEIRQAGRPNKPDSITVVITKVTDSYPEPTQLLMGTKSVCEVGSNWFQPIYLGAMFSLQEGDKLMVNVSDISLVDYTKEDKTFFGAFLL
- ASSAY TEXT: capture lift screen and Fab ELISA on coated TL1A
PARAMETER: binding result

binder="clone 1-4 Fab (12835 framework variant) (Fab, V domains shown, Fab) VH: QVQLVQSGAEVKKPGASVKLSCKASGFDIQDTYMHWVRQAPGQGLEWMGRIDPASGHTKYDPKFQVRVTMTTDTSTSTVYMELSSLRSEDTAVYYCSRSGGLPDVWGQGTTVTVSS VL: EIVLTQSPGTLSLSPGERVTMSCRASSSVSYMYWYQQKPGQAPRLWIYATSNLASGIPDRFSGSGSGTDYTLTISRLEPEDFAVYYCQQWSGNPRTFGGGTKLEIK" recorded_value=binds
binder="clone 17-2 Fab (12835 framework variant) (Fab, V domains shown, Fab) VH: QVQLVQSGAEVKKPGASVKLSCKASGFDIQDTYMHWVRQAPGQGLEWMGRIDPASGHTKYDPKFQVRVTMTRDTSTSTVYMELSSLRSEDTAVYYCSRSGGLPDVWGQGTTVTVSS VL: EIVLTQSPGTLSLSPGERATLSCRASSSVSYMYWYQQKPGQAPRLLIYATSNLASGVPDRFSGSGSGTDFTLTISRLEPEDFAVYYCQQWSGNPRTFGGGTKLEIK" recorded_value=binds
